// Ki collected for UniProtKB O42275
Sequence (O42275 whole entry): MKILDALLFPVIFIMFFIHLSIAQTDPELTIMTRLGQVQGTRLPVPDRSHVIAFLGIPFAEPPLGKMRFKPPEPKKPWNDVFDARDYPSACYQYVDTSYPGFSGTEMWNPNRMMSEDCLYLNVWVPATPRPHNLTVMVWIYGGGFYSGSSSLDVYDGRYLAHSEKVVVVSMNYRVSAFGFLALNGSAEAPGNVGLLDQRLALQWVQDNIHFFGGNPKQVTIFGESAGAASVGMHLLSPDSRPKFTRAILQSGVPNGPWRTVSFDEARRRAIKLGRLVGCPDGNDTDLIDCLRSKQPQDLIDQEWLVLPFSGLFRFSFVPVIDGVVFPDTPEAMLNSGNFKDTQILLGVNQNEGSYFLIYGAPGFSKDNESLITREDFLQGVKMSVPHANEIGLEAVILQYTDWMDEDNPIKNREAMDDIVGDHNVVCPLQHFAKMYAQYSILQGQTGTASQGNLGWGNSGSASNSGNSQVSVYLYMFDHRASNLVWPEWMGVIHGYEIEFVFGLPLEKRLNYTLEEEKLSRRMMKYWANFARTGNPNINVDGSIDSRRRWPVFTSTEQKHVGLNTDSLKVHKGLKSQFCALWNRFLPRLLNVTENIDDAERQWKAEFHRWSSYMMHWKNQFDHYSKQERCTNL

Here's what some known entries look like.
* COC(=O)[C@@]1(C)CC[C@]2(C)CC[C@]3(C)C(=CC(=O)[C@@H]4[C@@]5(C)CC[C@H](OC(=O)[C@@H](N)CC(=O)O)C(C)(C)[C@@H]5CC[C@]43C)[C@@H]2C1 | 16.2 µM
* CCOC(=O)[C@@]1(C)CC[C@]2(C)CC[C@]3(C)C(=CC(=O)[C@@H]4[C@@]5(C)CC[C@H](OC(=O)[C@H](N)Cc6c[nH]c7ccccc67)C(C)(C)[C@@H]5CC[C@]43C)[C@@H]2C1 | 11.7 µM

Exercise: Find the measured Ki of CC(C)(C)OC(=O)NCCCNC(=O)[C@@]1(C)CC[C@]2(C)CC[C@]3(C)C(=CC(=O)[C@@H]4[C@@]5(C)CC[C@H](O)C(C)(C)[C@@H]5CC[C@]43C)[C@@H]2C1 with UniProtKB O42275 as test system.
Key: > 10 µM

Exercise: Provide Ki, system UniProtKB O42275, entry C=CCCOC(=O)[C@@]1(C)CC[C@]2(C)CC[C@]3(C)C(=CC(=O)[C@@H]4[C@@]5(C)CC[C@H](O)C(C)(C)[C@@H]5CC[C@]43C)[C@@H]2C1
Key: 14.9 µM

Exercise: GET Ki where system = UniProtKB O42275 and item = CNCC(=O)O[C@H]1CC[C@]2(C)[C@H]3C(=O)C=C4[C@@H]5C[C@@](C)(C(=O)OC)CC[C@]5(C)CC[C@@]4(C)[C@]3(C)CC[C@H]2C1(C)C
Key: 20.4 µM

---

# measured-on: Cholinesterase (Equus caballus, UniProt P81908)
# Sequence (P81908 whole entry): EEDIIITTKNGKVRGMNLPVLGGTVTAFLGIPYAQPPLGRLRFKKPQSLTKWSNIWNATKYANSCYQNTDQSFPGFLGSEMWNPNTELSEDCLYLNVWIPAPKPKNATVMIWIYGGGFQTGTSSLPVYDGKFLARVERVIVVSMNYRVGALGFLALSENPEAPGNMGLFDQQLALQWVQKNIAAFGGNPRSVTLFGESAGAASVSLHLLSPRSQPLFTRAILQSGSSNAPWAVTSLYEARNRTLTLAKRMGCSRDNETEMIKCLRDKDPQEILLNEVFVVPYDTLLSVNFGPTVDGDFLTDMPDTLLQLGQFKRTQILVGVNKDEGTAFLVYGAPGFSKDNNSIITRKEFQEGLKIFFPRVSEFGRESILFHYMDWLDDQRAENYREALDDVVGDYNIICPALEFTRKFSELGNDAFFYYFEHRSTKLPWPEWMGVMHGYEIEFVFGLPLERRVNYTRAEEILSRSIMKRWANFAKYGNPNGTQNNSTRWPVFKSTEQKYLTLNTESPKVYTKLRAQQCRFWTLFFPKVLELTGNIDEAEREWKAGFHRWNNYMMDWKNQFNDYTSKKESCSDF
# test-protocol: Inhibition of equine serum BChE using butyrylthiocholine iodide as substrate after 20 mins measured for 1 min interval for 30 mins by Ellman's method
pKi: −log10 of the molar value.
# reported pKi; entries follow

# count of solved cases: 3
• COC(=O)[C@@]1(C)CC[C@]2(C)CC[C@]3(C)C(=CC(=O)[C@@H]4[C@@]5(C)CC[C@H](OC(=O)[C@@H](N)CC(=O)OCc6ccccc6)C(C)(C)[C@@H]5CC[C@]43C)[C@@H]2C1 = < 4.00
• COC(=O)[C@@]1(C)CC[C@]2(C)CC[C@]3(C)C(=CC(=O)[C@@H]4[C@@]5(C)CC[C@H](OC(=O)[C@@H](N)CCC(=O)O)C(C)(C)[C@@H]5CC[C@]43C)[C@@H]2C1 = < 4.00
• CCOC(=O)[C@@]1(C)CC[C@]2(C)CC[C@]3(C)C(=CC(=O)[C@@H]4[C@@]5(C)CC[C@H](OC(=O)[C@H](N)Cc6c[nH]c7ccccc67)C(C)(C)[C@@H]5CC[C@]43C)[C@@H]2C1 = < 4.00

Exercise: Please report pKi for the following molecule: CC1(C)[C@@H](O)CC[C@]2(C)[C@H]3C(=O)C=C4[C@@H]5C[C@@](C)(C(=O)OCCCCCCBr)CC[C@]5(C)CC[C@@]4(C)[C@]3(C)CC[C@@H]12
Key: < 4.00

Exercise: Report pKi for CC1(C)[C@@H](O)CC[C@]2(C)[C@H]3C(=O)C=C4[C@@H]5C[C@@](C)(C(=O)On6nnc7ccccc76)CC[C@]5(C)CC[C@@]4(C)[C@]3(C)CC[C@@H]12
Key: 5.01

---

# measured-on: Cholinesterase (Equus caballus) (UniProt P81908)
# Sequence (P81908 whole entry): as above
# test-protocol: Inhibition of equine serum BChE using butyrylthiocholine iodide as substrate at 50 uM after 20 mins measured for 1 min interval for 30 mins by Ellman's method
measurement-kind: inhibition (%)
Quick note: give the figure in %, leave out the unit.

Known results for molecules:
• CC1(C)[C@@H](O)CC[C@]2(C)[C@H]3C(=O)C=C4[C@@H]5C[C@@](C)(C(=O)OCCCCCCBr)CC[C@]5(C)CC[C@@]4(C)[C@]3(C)CC[C@@H]12 = 30
• CC1(C)[C@@H](O)CC[C@]2(C)[C@H]3C(=O)C=C4[C@@H]5C[C@@](C)(C(=O)NCCCN)CC[C@]5(C)CC[C@@]4(C)[C@]3(C)CC[C@@H]12 = 79
• COC(=O)[C@@]1(C)CC[C@]2(C)CC[C@]3(C)C(=CC(=O)[C@@H]4[C@@]5(C)CC[C@H](OC(=O)[C@@H](N)CCN)C(C)(C)[C@@H]5CC[C@]43C)[C@@H]2C1 = 16

Exercise: Using the record for COC(=O)[C@@]1(C)CC[C@]2(C)CC[C@]3(C)C(=CC(=O)[C@@H]4[C@@]5(C)CC[C@H](OC(=O)[C@@H](N)CCC(=O)OCc6ccccc6)C(C)(C)[C@@H]5CC[C@]43C)[C@@H]2C1 , state its measured inhibition.
Key: 16

---

Entries annotated with measured Ratio Ki
# test-protocol: Selectivity ratio of Ki for Electrophorus electricus AChE to Ki for equine serum BChE

• COC(=O)[C@@]1(C)CC[C@]2(C)CC[C@]3(C)C(=CC(=O)[C@@H]4[C@@]5(C)CC[C@H](OC(=O)[C@@H](N)CCCCN)C(C)(C)[C@@H]5CC[C@]43C)[C@@H]2C1 = < 0.2
• C[C@H](N)C(=O)O[C@H]1CC[C@]2(C)[C@H]3C(=O)C=C4[C@@H]5C[C@@](C)(C(=O)O)CC[C@]5(C)CC[C@@]4(C)[C@]3(C)CC[C@H]2C1(C)C = < 0.24
• CNCC(=O)O[C@H]1CC[C@]2(C)[C@H]3C(=O)C=C4[C@@H]5C[C@@](C)(C(=O)OC)CC[C@]5(C)CC[C@@]4(C)[C@]3(C)CC[C@H]2C1(C)C = < 0.21
• COC(=O)[C@@]1(C)CC[C@]2(C)CC[C@]3(C)C(=CC(=O)[C@@H]4[C@@]5(C)CC[C@H](OC(=O)[C@@H](N)CC(=O)OCc6ccccc6)C(C)(C)[C@@H]5CC[C@]43C)[C@@H]2C1 = < 0.28
• CC1(C)[C@@H](O)CC[C@]2(C)[C@H]3C(=O)C=C4[C@@H]5C[C@@](C)(C(=O)NCCCCN)CC[C@]5(C)CC[C@@]4(C)[C@]3(C)CC[C@@H]12 = 0.56

Exercise: In one line, give reported Ratio Ki of the entry COC(=O)[C@@]1(C)CC[C@]2(C)CC[C@]3(C)C(=CC(=O)[C@@H]4[C@@]5(C)CC[C@H](OC(=O)[C@@H](N)CCC(=O)O)C(C)(C)[C@@H]5CC[C@]43C)[C@@H]2C1 .
Key: < 0.19

Exercise: Specify Ratio Ki for COC(=O)[C@@]1(C)CC[C@]2(C)CC[C@]3(C)C(=CC(=O)[C@@H]4[C@@]5(C)CC[C@H](OC(=O)[C@H](C)N)C(C)(C)[C@@H]5CC[C@]43C)[C@@H]2C1 and stop.
Key: < 0.21

Exercise: Recall and state the measured Ratio Ki for COC(=O)[C@@]1(C)CC[C@]2(C)CC[C@]3(C)C(=CC(=O)[C@@H]4[C@@]5(C)CC[C@H](OC(=O)[C@@H](N)CC(=O)O)C(C)(C)[C@@H]5CC[C@]43C)[C@@H]2C1 .
Key: < 0.16

Exercise: Determine its reported Ratio Ki: CC1(C)[C@@H](O)CC[C@]2(C)[C@H]3C(=O)C=C4[C@@H]5C[C@@](C)(C(=O)On6nnc7ccccc76)CC[C@]5(C)CC[C@@]4(C)[C@]3(C)CC[C@@H]12
Key: > 2.04

Exercise: Input CC1(C)[C@@H](O)CC[C@]2(C)[C@H]3C(=O)C=C4[C@@H]5C[C@@](C)(C(=O)NCCCN)CC[C@]5(C)CC[C@@]4(C)[C@]3(C)CC[C@@H]12 , output reported Ratio Ki.
Key: > 18.4

---

# test-protocol: Solubility of the compound
# Assay type: physicochemical
measurement-kind: solubility

• COC(=O)[C@@]1(C)CC[C@]2(C)CC[C@]3(C)C(=CC(=O)[C@@H]4[C@@]5(C)CC[C@H](OC(=O)[C@H](C)N)C(C)(C)[C@@H]5CC[C@]43C)[C@@H]2C1 = Insoluble
• COC(=O)C[C@H](N)C(=O)O[C@H]1CC[C@]2(C)[C@H]3C(=O)C=C4[C@@H]5C[C@@](C)(C(=O)OC)CC[C@]5(C)CC[C@@]4(C)[C@]3(C)CC[C@H]2C1(C)C = Insoluble
• CC[C@H](C)[C@H](N)C(=O)O[C@H]1CC[C@]2(C)[C@H]3C(=O)C=C4[C@@H]5C[C@@](C)(C(=O)OC)CC[C@]5(C)CC[C@@]4(C)[C@]3(C)CC[C@H]2C1(C)C = Insoluble
• COC(=O)[C@@]1(C)CC[C@]2(C)CC[C@]3(C)C(=CC(=O)[C@@H]4[C@@]5(C)CC[C@H](OC(=O)[C@@H](N)C(C)C)C(C)(C)[C@@H]5CC[C@]43C)[C@@H]2C1 = Insoluble
• COC(=O)CC[C@H](N)C(=O)O[C@H]1CC[C@]2(C)[C@H]3C(=O)C=C4[C@@H]5C[C@@](C)(C(=O)OC)CC[C@]5(C)CC[C@@]4(C)[C@]3(C)CC[C@H]2C1(C)C = Insoluble
• COC(=O)[C@@]1(C)CC[C@]2(C)CC[C@]3(C)C(=CC(=O)[C@@H]4[C@@]5(C)CC[C@H](OC(=O)[C@@H](N)CC(C)C)C(C)(C)[C@@H]5CC[C@]43C)[C@@H]2C1 = Insoluble

Field: next compound
Exercise: Look up and state reported solubility for COC(=O)[C@@]1(C)CC[C@]2(C)CC[C@]3(C)C(=CC(=O)[C@@H]4[C@@]5(C)CC[C@H](OC(=O)[C@@H](N)CCCN)C(C)(C)[C@@H]5CC[C@]43C)[C@@H]2C1
Key: Insoluble
